# study.target: T1, purified recombinant GRP78 protein (human, UniProt P11021 19-654)
# T1 construct: source: recombinant, purified
# T1 sequence (P11021 19-654): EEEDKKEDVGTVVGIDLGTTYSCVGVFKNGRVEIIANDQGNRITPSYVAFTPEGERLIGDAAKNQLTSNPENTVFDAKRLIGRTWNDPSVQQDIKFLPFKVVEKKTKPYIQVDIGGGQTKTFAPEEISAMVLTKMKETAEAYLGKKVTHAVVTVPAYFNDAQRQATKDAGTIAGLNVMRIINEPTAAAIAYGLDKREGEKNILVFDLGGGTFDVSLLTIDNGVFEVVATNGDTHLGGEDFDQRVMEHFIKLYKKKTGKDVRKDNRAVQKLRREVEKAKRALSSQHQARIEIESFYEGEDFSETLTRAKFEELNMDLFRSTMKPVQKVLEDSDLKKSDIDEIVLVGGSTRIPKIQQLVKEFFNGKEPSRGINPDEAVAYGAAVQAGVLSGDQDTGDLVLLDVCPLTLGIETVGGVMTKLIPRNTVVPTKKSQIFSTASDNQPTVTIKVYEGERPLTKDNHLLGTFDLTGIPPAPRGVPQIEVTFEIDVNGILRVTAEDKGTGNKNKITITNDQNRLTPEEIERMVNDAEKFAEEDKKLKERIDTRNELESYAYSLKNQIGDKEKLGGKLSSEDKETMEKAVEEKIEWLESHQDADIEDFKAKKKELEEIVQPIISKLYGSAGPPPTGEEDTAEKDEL
# method: ITC; recombinant GRP78 with preS1 peptides
# cond: both partners purified
recorded.metric: Kd (nM)
Give just the number in nM; leave the unit off.

- QGIMQTVPAN (source: designed hydrophobic peptide of preS1) [pep59 (70-QGIMQTVPAN-80)]: 10.6

Param item = DPAFGANSL (also called pepp56; source: designed hydrophobic peptide of preS1) [pep56 (19-DPAFGANSL-29)] ; retrieve measured Kd.
6.59
